I'd appreciate it if you could supply pIC50 values for the items below.
target: recombinant human TGM2 (Homo sapiens (Human), UniProt P21980); experiment: Assay for quantification of TGM2 transglutaminase inhibitory activity (fluorescence, H-Abz-APE(CAD-DNP)QEA-OH substrate); assay type: biochemical; conditions: recombinant human TGM2 25 μg/ml; substrate 50 μM, glycine methyl ester 5 mM; 15 min preincubation at room temperature; pH 7.5; read-out: IC50 values for inhibition of TGM2
Sequence (P21980 whole entry): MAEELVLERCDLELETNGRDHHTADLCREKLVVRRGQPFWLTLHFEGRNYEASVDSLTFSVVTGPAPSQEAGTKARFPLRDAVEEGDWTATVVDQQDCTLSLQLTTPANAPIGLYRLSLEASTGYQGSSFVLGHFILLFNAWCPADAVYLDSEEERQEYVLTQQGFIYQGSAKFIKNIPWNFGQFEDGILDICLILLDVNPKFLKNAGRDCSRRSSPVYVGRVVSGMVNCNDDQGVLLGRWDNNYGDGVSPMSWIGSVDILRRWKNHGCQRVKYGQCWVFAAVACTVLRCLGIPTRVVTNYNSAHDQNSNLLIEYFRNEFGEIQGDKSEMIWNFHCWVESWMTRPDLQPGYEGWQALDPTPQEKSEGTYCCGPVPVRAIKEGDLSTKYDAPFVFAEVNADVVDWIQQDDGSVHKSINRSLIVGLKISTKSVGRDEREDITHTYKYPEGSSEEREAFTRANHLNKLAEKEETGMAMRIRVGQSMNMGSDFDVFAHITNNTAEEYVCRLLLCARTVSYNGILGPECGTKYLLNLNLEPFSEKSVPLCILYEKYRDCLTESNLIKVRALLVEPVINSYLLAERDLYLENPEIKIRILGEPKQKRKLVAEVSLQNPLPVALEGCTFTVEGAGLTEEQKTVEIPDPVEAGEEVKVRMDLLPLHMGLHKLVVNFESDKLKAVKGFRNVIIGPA
The meaning of pIC50 here: minus log10 of the concentration in molar units.

### Prompt So what's the measured pIC50 for this one? "O=C(O)CN1CCN(C(=O)n2sc3c(ccc[n+]3[O-])c2=O)CC1"
### Response 4.92

### Prompt So what's the measured pIC50 for this one? "O=C(C1CC1)N1CCN(C(=O)n2sc3c(ccc[n+]3[O-])c2=O)CC1"
### Response 7.35

### Prompt So what's the measured pIC50 for this one? "NC(=O)N1CCN(C(=O)n2sc3c(ccc[n+]3[O-])c2=O)CC1"
### Response 5.77

### Prompt So what's the measured pIC50 for this one? "CC(C)C(=O)N1CCN(C(=O)n2sc3c(ccc[n+]3[O-])c2=O)CC1"
### Response 7.21

### Prompt So what's the measured pIC50 for this one? "O=C(c1ccccn1)N1CCN(C(=O)n2sc3c(ccc[n+]3[O-])c2=O)CC1"
### Response 7.14

### Prompt So what's the measured pIC50 for this one? "CC(=O)N1CCN(C(=O)n2sc3c(ccc[n+]3[O-])c2=O)CC1"
### Response 7.21

### Prompt So what's the measured pIC50 for this one? "CN1CCN(C2CCN(C(=O)n3sc4c(ccc[n+]4[O-])c3=O)CC2)CC1"
### Response 6.47

### Prompt So what's the measured pIC50 for this one? "O=C(N1CCNCC1)n1sc2c(ccc[n+]2[O-])c1=O"
### Response 5.92

### Prompt So what's the measured pIC50 for this one? "CCS(=O)(=O)N1CCN(C(=O)n2sc3c(ccc[n+]3[O-])c2=O)CC1"
### Response 7.21

### Prompt So what's the measured pIC50 for this one? "C[C@@H]1CN(C(=O)n2sc3c(ccc[n+]3[O-])c2=O)C[C@H](C)O1"
### Response 5.54

### Prompt So what's the measured pIC50 for this one? "CC(=O)N1CCN(C(=O)n2sc3ncccc3c2=O)CC1"
### Response 6.47

### Prompt So what's the measured pIC50 for this one? "COCCC(=O)N1CCN(C(=O)n2sc3c(ccc[n+]3[O-])c2=O)CC1"
### Response 6.12

### Prompt So what's the measured pIC50 for this one? "O=C(N1CCOCC1)n1sc2c(ccc[n+]2[O-])c1=O"
### Response 6.57

### Prompt So what's the measured pIC50 for this one? "O=C1CN(C(=O)n2sc3c(ccc[n+]3[O-])c2=O)CCN1"
### Response 6.82

### Prompt So what's the measured pIC50 for this one? "O=C1NCCN1C1CCN(C(=O)n2sc3c(ccc[n+]3[O-])c2=O)CC1"
### Response 5.51

### Prompt So what's the measured pIC50 for this one? "CCCC(=O)C1CCN(C(=O)n2sc3c(ccc[n+]3[O-])c2=O)CC1"
### Response 6.92

### Prompt So what's the measured pIC50 for this one? "CCS(=O)(=O)N1CCN(C(=O)n2sc3ncccc3c2=O)CC1"
### Response 6.37

### Prompt So what's the measured pIC50 for this one? "O=C([C@@H]1CCCN1)N1CCN(C(=O)n2sc3c(ccc[n+]3[O-])c2=O)CC1"
### Response 5.64

### Prompt So what's the measured pIC50 for this one? "O=C(c1ccncc1)N1CCN(C(=O)n2sc3c(ccc[n+]3[O-])c2=O)CC1"
### Response 6.89

### Prompt So what's the measured pIC50 for this one? "CCNCC(=O)N1CCN(C(=O)n2sc3c(ccc[n+]3[O-])c2=O)CC1"
### Response 5.70

### Prompt So what's the measured pIC50 for this one? "O=C(N1CCN(c2ccc(N3CCCC3)nn2)CC1)n1sc2c(ccc[n+]2[O-])c1=O"
### Response 6.85

### Prompt So what's the measured pIC50 for this one? "COc1ccc(CNC(=O)n2sc3c(ccc[n+]3[O-])c2=O)cc1OC"
### Response 6.43

### Prompt So what's the measured pIC50 for this one? "CNC1CCN(C(=O)n2sc3c(ccc[n+]3[O-])c2=O)CC1"
### Response 6.62

### Prompt So what's the measured pIC50 for this one? "O=C(CCOc1ccccc1)N1CCN(C(=O)n2sc3c(ccc[n+]3[O-])c2=O)CC1"
### Response 7.85

### Prompt So what's the measured pIC50 for this one? "O=C(CCOc1ccccc1)N1CCN(C(=O)n2sc3ncccc3c2=O)CC1"
### Response 6.96

### Prompt So what's the measured pIC50 for this one? "NCC(=O)N1CCN(C(=O)n2sc3c(ccc[n+]3[O-])c2=O)CC1"
### Response 6.92

### Prompt So what's the measured pIC50 for this one? "N#Cc1ccc(N2CCN(C(=O)n3sc4ncccc4c3=O)CC2)cc1"
### Response 5.96

### Prompt So what's the measured pIC50 for this one? "COc1ccc(C(=O)N2CCN(C(=O)n3sc4c(ccc[n+]4[O-])c3=O)CC2)cc1OC"
### Response 7.27

### Prompt So what's the measured pIC50 for this one? "O=C(C1CC1)N1CCN(C(=O)n2sc3ncccc3c2=O)CC1"
### Response 6.38

### Prompt So what's the measured pIC50 for this one? "O=C(O)CN1CCN(C(=O)n2sc3ncccc3c2=O)CC1"
### Response 4.74

### Prompt So what's the measured pIC50 for this one? "O=C1CC[C@@H](C(=O)N2CCN(C(=O)n3sc4c(ccc[n+]4[O-])c3=O)CC2)N1"
### Response 6.00

### Prompt So what's the measured pIC50 for this one? "O=C(N1CCC2(CCCN2)CC1)n1sc2c(ccc[n+]2[O-])c1=O"
### Response 5.37

### Prompt So what's the measured pIC50 for this one? "COc1ccc(C(=O)N2CCN(C(=O)n3sc4ncccc4c3=O)CC2)cc1OC"
### Response 7.19

### Prompt So what's the measured pIC50 for this one? "O=C(N1CCC(O)CC1)n1sc2c(ccc[n+]2[O-])c1=O"
### Response 5.68

### Prompt So what's the measured pIC50 for this one? CC(NC(=O)n1sc2c(ccc[n+]2[O-])c1=O)c1ccc2c(c1)OCCO2 (centres unmarked)
### Response 4.59
